Listed here: items and their measured kon.
Target: human CD137 (human, UniProt Q07011 24-186)
Sequence (Q07011 24-186 limits assumed): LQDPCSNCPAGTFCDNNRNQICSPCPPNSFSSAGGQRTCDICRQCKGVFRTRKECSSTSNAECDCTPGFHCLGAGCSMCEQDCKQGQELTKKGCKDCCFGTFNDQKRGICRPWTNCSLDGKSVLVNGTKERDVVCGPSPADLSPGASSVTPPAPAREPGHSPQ
Test: SPR Biacore T200, IgG captured on protein A, 25 C;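 also: antigens diluted in ACES running buffer at pH 7.4 were flowed over antibodies held on a CM3 chip bearing amine-coupled protein A, with buffer alone serving as blank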

Solved cases (2 shown):
>  <binder>
dBBDu186/L106 (antibody, V domains shown, IgG format; constant regions not specified) VH: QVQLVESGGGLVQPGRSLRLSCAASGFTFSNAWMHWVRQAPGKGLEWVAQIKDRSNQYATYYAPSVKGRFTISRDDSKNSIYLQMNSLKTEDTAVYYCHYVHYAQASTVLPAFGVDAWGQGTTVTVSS VL: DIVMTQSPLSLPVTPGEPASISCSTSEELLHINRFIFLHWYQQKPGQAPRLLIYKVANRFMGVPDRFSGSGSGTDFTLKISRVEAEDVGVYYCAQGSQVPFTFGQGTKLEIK

>  <value>
130 M⁻¹ s⁻¹

$$$$
>  <binder>
dBBDu186/L098 (antibody, V domains shown, IgG format; constant regions not specified) VH: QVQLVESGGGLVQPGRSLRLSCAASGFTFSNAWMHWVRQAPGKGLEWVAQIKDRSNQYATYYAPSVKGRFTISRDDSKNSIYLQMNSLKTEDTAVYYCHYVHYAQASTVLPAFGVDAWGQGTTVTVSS VL: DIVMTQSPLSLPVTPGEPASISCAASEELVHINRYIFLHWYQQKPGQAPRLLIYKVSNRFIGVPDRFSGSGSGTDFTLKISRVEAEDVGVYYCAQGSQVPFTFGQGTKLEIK

>  <value>
231 M⁻¹ s⁻¹

$$$$

Please give the documented kon of dBBDu167/L094 (antibody, V domains shown, IgG format; constant regions not specified; also called dBBDu_167 dBBDu.L094) VH: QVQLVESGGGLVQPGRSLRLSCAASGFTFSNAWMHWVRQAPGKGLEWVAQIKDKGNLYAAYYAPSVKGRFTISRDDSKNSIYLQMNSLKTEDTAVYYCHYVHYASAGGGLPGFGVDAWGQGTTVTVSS VL: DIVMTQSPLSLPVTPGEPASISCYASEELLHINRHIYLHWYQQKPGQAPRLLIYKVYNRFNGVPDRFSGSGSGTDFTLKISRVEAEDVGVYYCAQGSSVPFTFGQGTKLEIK 1210 M⁻¹ s⁻¹

Hey, just so you know, these numbers are from patent US20210388087A1.
